ASSAY NAME: soluble on expression in E. coli; label from the status in PepcDB or PDB records
VALUE KIND: soluble on expression in E. coli

1) MRDNASLAHTQWNCKYHIVFAPKYRRQVIYGKIKKDIGQILRKLCEMKGVEIIEASLCPDHIHMLVSIPPKISVSSFMGYLKGKSSLMIFNRHANLKYKYGNRHFWCRGYYVDTVGRNRKAIEQYIRRQLQEDIASDQISLNEYIDPFTGERVNKSKK :: not soluble
2) MGSDKIHHHHHHSDNAGRTDKQTATVHDSQKDTSSDSKSDNDKKDTKYKSADEITMDDLMSHDETPAEDFELIDNSDEIVIQKYIGKDPIMVIPDEINGKKVVSLGTYALANDKNIVAIKIGNNIKDLGEGVFGNCENLRYVVLGDSVKTIGCNPFLNTNIQEVTLNDGLQKIGEDDINNTVDAPSKNIGMDLKIPESVTEMHLRDFHLIVKAGSYAEQYAKEYAESNNLTYTVE :: not soluble
